System: 134 cancer cell lines
Assay: Cell viability assay (ATPlite, 72 hours), IC50 on cancer cell line panel
Conditions: Homo sapiens, KMS-11, read-out: IC50 in cell proliferation assay, KMS-11 cell line (FGFR3 p.Y373C)
property_measured: IC50

Cn1cnc2c(F)c(Nc3ccc(Br)cc3F)c(C(=O)NOCCO)cc21; > 31.6 µM

Can you give me IC50 for all of these, one by one?
1. FC(F)(F)c1ccc(CNc2ccc(Cc3c[nH]c4ncc(Cl)cc34)cn2)cn1
2. CO[C@]1(C(=O)N[C@@H](C)c2ccc(-n3cc(F)cn3)nc2)CC[C@H](c2nc(C)cc(Nc3cc(C)[nH]n3)n2)CC1

1: > 31.6 µM; 2: 0.394 µM

* * *

Target: panel of 255 wild-type kinases (Homo sapiens, UniProt Q9NYA1)
Sequence (Q9NYA1 whole entry): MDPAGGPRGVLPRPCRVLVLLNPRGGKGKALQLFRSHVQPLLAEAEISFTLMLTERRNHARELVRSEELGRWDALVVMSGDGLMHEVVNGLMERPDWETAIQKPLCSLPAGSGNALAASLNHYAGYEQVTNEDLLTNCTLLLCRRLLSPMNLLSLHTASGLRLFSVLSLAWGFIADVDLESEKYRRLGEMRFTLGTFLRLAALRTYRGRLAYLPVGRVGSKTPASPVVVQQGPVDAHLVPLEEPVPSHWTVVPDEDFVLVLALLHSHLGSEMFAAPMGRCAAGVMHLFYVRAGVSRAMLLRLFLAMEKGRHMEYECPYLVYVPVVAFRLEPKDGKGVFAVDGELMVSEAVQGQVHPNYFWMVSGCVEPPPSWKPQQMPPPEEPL
Test: Kinase panel profiling at 1 µmol/L (MSA or IMAP), percentage inhibition
Format: biochemical
Conditions: kinase SPHK1; 1 µmol/L single concentration; read-out: %-inhibition at 1 µmol/L, SPHK1
Please go through the items and note down their inhibition at 1 µM.
Answers are plain numbers, in %.

// known answers, use as guide
C[C@H]1Oc2cc(cnc2N)-c2c(nn(C)c2C#N)CN(C)C(=O)c2ccc(F)cc21 [lorlatinib]; -7
Cn1cnc2c(F)c(Nc3ccc(Br)cc3F)c(C(=O)NOCCO)cc21 [binimetinib]; -26
O=C(Nc1cnn2ccc(N3CCC[C@@H]3c3cc(F)ccc3F)nc12)N1CC[C@H](O)C1 [larotrectinib]; -16
CCn1c(=O)c(-c2cc(NC(=O)Nc3ccccc3)c(F)cc2Br)cc2cnc(NC)cc21 [ripretinib]; -19
COc1ccc(CN2C3CC2CN(c2ccc(-c4cc(OCC(C)(C)O)cn5ncc(C#N)c45)cn2)C3)cn1 [selpercatinib]; -13

// input: 4 compounds below; output: inhibition at 1 µM for each
1. CO[C@]1(C(=O)N[C@@H](C)c2ccc(-n3cc(F)cn3)nc2)CC[C@H](c2nc(C)cc(Nc3cc(C)[nH]n3)n2)CC1 [pralsetinib]
2. CCN1C(=O)N(c2c(F)c(OC)cc(OC)c2F)Cc2cnc3[nH]c(CN4CCOCC4)cc3c21 [pemigatinib]
3. C=CC(=O)N1CCC([C@@H]2CCNc3c(C(N)=O)c(-c4ccc(Oc5ccccc5)cc4)nn32)CC1 [zanubrutinib]
4. Cc1cc(Nc2ncnc3ccc(NC4=NC(C)(C)CO4)cc23)ccc1Oc1ccn2ncnc2c1 [tucatinib]

1. 0.199
2. -13
3. -15
4. -6.37

* * *

Molecular target: panel of 255 wild-type kinases (Homo sapiens, UniProt P19784)
Sequence (P19784 whole entry): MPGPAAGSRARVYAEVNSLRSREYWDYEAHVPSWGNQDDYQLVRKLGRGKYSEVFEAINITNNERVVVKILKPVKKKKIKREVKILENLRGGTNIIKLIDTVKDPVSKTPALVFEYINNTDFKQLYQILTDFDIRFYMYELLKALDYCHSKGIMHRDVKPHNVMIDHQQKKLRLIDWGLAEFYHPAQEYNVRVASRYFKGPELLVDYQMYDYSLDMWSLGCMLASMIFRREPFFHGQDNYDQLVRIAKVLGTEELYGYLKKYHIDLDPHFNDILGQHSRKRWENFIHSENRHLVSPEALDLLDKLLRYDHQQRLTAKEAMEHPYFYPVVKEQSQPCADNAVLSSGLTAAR
Assay: Kinase panel profiling at 1 µmol/L (MSA or IMAP), percentage inhibition
Type: biochemical
Settings: kinase CK2α2/β; 1 µmol/L single concentration; read-out: %-inhibition at 1 µmol/L, CK2α2/β
Kindly state inhibition at 1 µM for each of the entries shown.
Answers are plain numbers, in %.

Below, each entry is followed by its recorded inhibition at 1 µM result.
O=C(Nc1cnn2ccc(N3CCC[C@@H]3c3cc(F)ccc3F)nc12)N1CC[C@H](O)C1 [larotrectinib]; -3
C[C@H](Nc1ncnc2nc[nH]c12)c1cc2cccc(Cl)c2c(=O)n1-c1ccccc1 [duvelisib]; -1.47
C=CC(=O)N1CCC([C@@H]2CCNc3c(C(N)=O)c(-c4ccc(Oc5ccccc5)cc4)nn32)CC1 [zanubrutinib]; -4

Now, please, on to the next compound.
inhibition at 1 µM for CCN1CCN(c2ccc(Nc3cc(N(C)C(=O)Nc4c(Cl)c(OC)cc(OC)c4Cl)ncn3)cc2)CC1 [infigratinib] is -2.17

* * *

Molecular target: panel of 255 wild-type kinases (Homo sapiens)
Sequence (O00418 1-725): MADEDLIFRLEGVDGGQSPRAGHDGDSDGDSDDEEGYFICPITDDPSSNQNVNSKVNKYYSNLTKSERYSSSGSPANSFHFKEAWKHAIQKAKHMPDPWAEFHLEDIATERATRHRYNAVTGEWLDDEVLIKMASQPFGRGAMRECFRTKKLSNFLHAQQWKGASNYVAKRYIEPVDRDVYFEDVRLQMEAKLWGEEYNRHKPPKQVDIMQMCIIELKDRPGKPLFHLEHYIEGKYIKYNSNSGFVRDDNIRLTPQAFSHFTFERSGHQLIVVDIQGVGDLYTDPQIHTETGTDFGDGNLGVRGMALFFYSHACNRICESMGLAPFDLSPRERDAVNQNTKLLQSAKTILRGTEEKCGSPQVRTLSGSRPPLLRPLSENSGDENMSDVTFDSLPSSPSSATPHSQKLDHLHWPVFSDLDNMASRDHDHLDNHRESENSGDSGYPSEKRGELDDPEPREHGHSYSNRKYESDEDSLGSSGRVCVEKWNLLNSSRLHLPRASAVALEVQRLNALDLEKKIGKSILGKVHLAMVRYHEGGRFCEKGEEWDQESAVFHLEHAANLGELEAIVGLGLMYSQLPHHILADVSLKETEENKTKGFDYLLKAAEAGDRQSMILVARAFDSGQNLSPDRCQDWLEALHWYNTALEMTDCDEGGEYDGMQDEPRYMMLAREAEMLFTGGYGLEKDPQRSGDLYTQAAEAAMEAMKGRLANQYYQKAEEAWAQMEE
Experiment: Kinase panel profiling at 1 µmol/L (MSA or IMAP), percentage inhibition
Format: biochemical
Details: kinase EEF2K; 1 µmol/L single concentration; read-out: %-inhibition at 1 µmol/L, EEF2K
property_measured: inhibition at 1 µM (%)
Give bare numbers, in %.

Cn1cnc2c(F)c(Nc3ccc(Br)cc3F)c(C(=O)NOCCO)cc21; -6
O=C(Nc1cnn2ccc(N3CCC[C@@H]3c3cc(F)ccc3F)nc12)N1CC[C@H](O)C1; -2

Batch lookup, inhibition at 1 µM per entry.
1. Cn1cc(-c2cc3c(N4CCN(c5ncc([C@@](C)(N)c6ccc(F)cc6)cn5)CC4)ncnn3c2)cn1
2. CCc1nc(C(N)=O)c(Nc2ccc(N3CCC(N4CCN(C)CC4)CC3)c(OC)c2)nc1NC1CCOCC1
3. CO[C@]1(C(=O)N[C@@H](C)c2ccc(-n3cc(F)cn3)nc2)CC[C@H](c2nc(C)cc(Nc3cc(C)[nH]n3)n2)CC1
4. FC(F)(F)c1ccc(CNc2ccc(Cc3c[nH]c4ncc(Cl)cc34)cn2)cn1
5. COC(=O)N[C@@H](C)CNc1nccc(-c2cn(C(C)C)nc2-c2cc(Cl)cc(NS(C)(=O)=O)c2F)n1

-1.21
-2.72
1.23
-2.25
1

* * *

Target: panel of 255 wild-type kinases (Homo sapiens, UniProt P22694)
Assay: Kinase panel profiling at 1 µmol/L (MSA or IMAP), percentage inhibition
Assay type: biochemical
Conditions: kinase PKACβ; 1 µmol/L single concentration; read-out: %-inhibition at 1 µmol/L, PKACβ
So I've got a bunch of molecules here, and I need their inhibition at 1 µM values.
Numbers only, in %.

Items follow; give inhibition at 1 µM for each.
1. COc1cc2ncnc(Nc3ccc(F)c(Cl)c3)c2cc1NC(=O)/C=C/CN1CCCCC1
2. CO[C@]1(C(=O)N[C@@H](C)c2ccc(-n3cc(F)cn3)nc2)CC[C@H](c2nc(C)cc(Nc3cc(C)[nH]n3)n2)CC1
3. CCN1C(=O)N(c2c(F)c(OC)cc(OC)c2F)Cc2cnc3[nH]c(CN4CCOCC4)cc3c21

[6, 20, -7]

* * *

Tested on: 134 cancer cell lines
Assay: Cell viability assay (ATPlite, 72 hours), IC50 on cancer cell line panel
Conditions: Homo sapiens, SW837, read-out: IC50 in cell proliferation assay, cell line SW837
property_measured: IC50 (µM)
One number for each entry, in µM.

Cn1cnc2c(F)c(Nc3ccc(Br)cc3Cl)c(C(=O)NOCCO)cc21; 0.22
CC(=O)Nc1cccc(-n2c(=O)n(C3CC3)c(=O)c3c(Nc4ccc(I)cc4F)n(C)c(=O)c(C)c32)c1; 0.098
CN1CCN(c2ccc(C(=O)Nc3n[nH]c4ccc(Cc5cc(F)cc(F)c5)cc34)c(NC3CCOCC3)c2)CC1; 8.38

Please look at the following molecule next.
Briefly, IC50 measured for Cc1nc(NC(=O)N2CCC[C@H]2C(N)=O)sc1-c1ccnc(C(C)(C)C(F)(F)F)c1 : 21.9

* * *

Molecular target: panel of 255 wild-type kinases (Homo sapiens)
Assay: Kinase panel profiling at 1 µmol/L (MSA or IMAP), percentage inhibition
Assay type: biochemical
Settings: kinase TSSK3; 1 µmol/L single concentration; read-out: %-inhibition at 1 µmol/L, TSSK3
I'd be grateful if you could share measured inhibition at 1 µM for these entries.
Numbers only, in %.

As a guide, the following entries are already answered.
CCN1CCN(c2ccc(Nc3cc(N(C)C(=O)Nc4c(Cl)c(OC)cc(OC)c4Cl)ncn3)cc2)CC1; -1.43
CO[C@]1(C(=O)N[C@@H](C)c2ccc(-n3cc(F)cn3)nc2)CC[C@H](c2nc(C)cc(Nc3cc(C)[nH]n3)n2)CC1; -5
FC(F)(F)c1ccc(CNc2ccc(Cc3c[nH]c4ncc(Cl)cc34)cn2)cn1; 10

Give inhibition at 1 µM for each listed item.
1. CCc1nc(C(N)=O)c(Nc2ccc(N3CCC(N4CCN(C)CC4)CC3)c(OC)c2)nc1NC1CCOCC1
2. Cc1nc(NC(=O)N2CCC[C@H]2C(N)=O)sc1-c1ccnc(C(C)(C)C(F)(F)F)c1
3. CCn1c(=O)c(-c2cc(NC(=O)Nc3ccccc3)c(F)cc2Br)cc2cnc(NC)cc21
4. CN1CCN(c2ccc(C(=O)Nc3n[nH]c4ccc(Cc5cc(F)cc(F)c5)cc34)c(NC3CCOCC3)c2)CC1
5. C=CC(=O)N1CCC([C@@H]2CCNc3c(C(N)=O)c(-c4ccc(Oc5ccccc5)cc4)nn32)CC1
6. Cn1cnc2c(F)c(Nc3ccc(Br)cc3F)c(C(=O)NOCCO)cc21
7. COC(=O)N[C@@H](C)CNc1nccc(-c2cn(C(C)C)nc2-c2cc(Cl)cc(NS(C)(=O)=O)c2F)n1
8. C[C@H]1Oc2cc(cnc2N)-c2c(nn(C)c2C#N)CN(C)C(=O)c2ccc(F)cc21

1. 11
2. 0.673
3. -0.0717
4. 5.68
5. 0.315
6. 2.62
7. 4
8. 3.55

Please give inhibition at 1 µM for each item listed below.
1. COc1ccc(CN2C3CC2CN(c2ccc(-c4cc(OCC(C)(C)O)cn5ncc(C#N)c45)cn2)C3)cn1
2. Cn1cnc2c(F)c(Nc3ccc(Br)cc3Cl)c(C(=O)NOCCO)cc21
3. Cn1cc(-c2cc3c(N4CCN(c5ncc([C@@](C)(N)c6ccc(F)cc6)cn5)CC4)ncnn3c2)cn1

-4
-3
-4

State recorded inhibition at 1 µM for all listed compounds.
1. COc1cc2ncnc(Nc3ccc(F)c(Cl)c3)c2cc1NC(=O)/C=C/CN1CCCCC1
2. C[C@H](Nc1ncnc2nc[nH]c12)c1cc2cccc(Cl)c2c(=O)n1-c1ccccc1
3. Cc1cc(Nc2ncnc3ccc(NC4=NC(C)(C)CO4)cc23)ccc1Oc1ccn2ncnc2c1
4. O=C(Nc1cnn2ccc(N3CCC[C@@H]3c3cc(F)ccc3F)nc12)N1CC[C@H](O)C1
5. CCN1C(=O)N(c2c(F)c(OC)cc(OC)c2F)Cc2cnc3[nH]c(CN4CCOCC4)cc3c21

3
3
-0.029
0.55
-0.468
